Entries and their measured IC50 follow.
- STUDY_TARGET: PI3K β (Homo sapiens, UniProt P42338)
- Construct: purchased Upstate
- Sequence (P42338 whole entry): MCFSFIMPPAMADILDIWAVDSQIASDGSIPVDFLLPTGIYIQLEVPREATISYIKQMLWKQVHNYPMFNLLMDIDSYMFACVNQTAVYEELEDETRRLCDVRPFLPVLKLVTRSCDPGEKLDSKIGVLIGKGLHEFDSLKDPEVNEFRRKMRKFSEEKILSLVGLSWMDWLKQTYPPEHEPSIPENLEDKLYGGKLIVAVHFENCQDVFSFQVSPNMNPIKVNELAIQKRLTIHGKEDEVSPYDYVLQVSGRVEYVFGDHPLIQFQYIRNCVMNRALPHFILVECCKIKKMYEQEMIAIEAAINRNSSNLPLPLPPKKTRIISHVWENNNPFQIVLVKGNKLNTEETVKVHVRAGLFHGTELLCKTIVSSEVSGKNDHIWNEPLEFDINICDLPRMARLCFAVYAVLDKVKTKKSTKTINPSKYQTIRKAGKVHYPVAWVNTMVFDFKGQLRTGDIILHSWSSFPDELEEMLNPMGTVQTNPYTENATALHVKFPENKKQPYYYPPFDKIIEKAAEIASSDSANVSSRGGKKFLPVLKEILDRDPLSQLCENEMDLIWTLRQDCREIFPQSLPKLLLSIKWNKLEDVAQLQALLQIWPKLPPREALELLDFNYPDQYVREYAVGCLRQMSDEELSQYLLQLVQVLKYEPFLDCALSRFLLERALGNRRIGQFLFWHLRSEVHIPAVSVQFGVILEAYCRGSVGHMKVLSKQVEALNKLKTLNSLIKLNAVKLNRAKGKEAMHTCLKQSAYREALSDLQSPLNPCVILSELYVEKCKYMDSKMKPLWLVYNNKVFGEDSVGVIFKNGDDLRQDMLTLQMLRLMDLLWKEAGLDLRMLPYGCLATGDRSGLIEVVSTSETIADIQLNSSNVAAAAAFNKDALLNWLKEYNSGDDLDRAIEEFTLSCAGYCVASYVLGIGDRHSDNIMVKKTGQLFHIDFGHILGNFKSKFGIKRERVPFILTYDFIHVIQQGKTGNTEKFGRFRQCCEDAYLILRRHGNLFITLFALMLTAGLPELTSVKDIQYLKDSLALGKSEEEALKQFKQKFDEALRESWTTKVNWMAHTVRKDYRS
- Sequence (P27986 whole entry partner): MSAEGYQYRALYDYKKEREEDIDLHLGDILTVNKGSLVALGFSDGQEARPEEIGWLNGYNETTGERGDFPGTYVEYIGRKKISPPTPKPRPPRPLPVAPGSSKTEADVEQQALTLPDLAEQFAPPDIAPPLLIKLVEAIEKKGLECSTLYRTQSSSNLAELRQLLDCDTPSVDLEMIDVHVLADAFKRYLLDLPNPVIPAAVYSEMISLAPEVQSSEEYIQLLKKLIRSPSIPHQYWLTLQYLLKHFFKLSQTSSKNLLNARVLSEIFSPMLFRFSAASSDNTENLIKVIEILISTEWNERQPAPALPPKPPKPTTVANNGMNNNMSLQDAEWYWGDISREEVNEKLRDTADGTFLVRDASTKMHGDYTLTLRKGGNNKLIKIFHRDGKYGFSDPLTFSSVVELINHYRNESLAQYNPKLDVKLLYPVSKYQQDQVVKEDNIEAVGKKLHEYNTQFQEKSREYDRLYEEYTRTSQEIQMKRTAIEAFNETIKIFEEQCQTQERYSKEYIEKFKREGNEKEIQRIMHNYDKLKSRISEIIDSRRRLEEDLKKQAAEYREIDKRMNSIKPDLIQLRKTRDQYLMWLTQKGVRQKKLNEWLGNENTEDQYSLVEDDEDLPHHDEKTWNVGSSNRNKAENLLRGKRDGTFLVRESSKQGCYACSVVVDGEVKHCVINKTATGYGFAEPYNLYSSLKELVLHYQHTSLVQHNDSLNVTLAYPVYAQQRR
- ASSAY_SUMMARY: In vitro PI3K β inhibition assay
- Format: biochemical

{"columns": ["MOLECULE", "IC50"],
 "data": [
  ["C[C@@H](Nc1ncnc2[nH]cnc12)c1cc2cccc(-c3cn[nH]c3)c2c(=O)n1C1CC1 [Compound 12]", "< 1000 nM"],
  ["C[C@H](Nc1ncnc2[nH]cc(F)c12)c1cc2cccc(-c3cnn(C)c3)c2c(=O)n1C1CC1 [Compound 62]", "< 10000 nM"],
  ["Cc1cc(-c2cccc3cc([C@H](C)Nc4ncnc5[nH]cnc45)n(-c4ccccc4)c(=O)c23)ccn1 [Compound 41]", "< 10000 nM"],
  ["C[C@@H](Nc1ncnc2[nH]cnc12)c1cc2cccc(-c3cccnc3)c2c(=O)n1C1CC1 (stereo in doubt) [Compound 13]", "< 1000 nM"],
  ["C[C@H](Nc1nc(N)nc2[nH]cnc12)c1cc2cccc(-c3cnn(C)c3)c2c(=O)n1-c1ccccc1 [Compound 36]", "< 10000 nM"]
]}

Inquiry: For the molecule shown here, Cc1ccc(-c2cccc3cc([C@H](C)Nc4nc(N)nc5[nH]cnc45)n(-c4ccccc4)c(=O)c23)cn1 [Compound 37] , give the reported IC50.
Reply text: < 10000 nM

Inquiry: Look up IC50: C[C@@H](Nc1ncnc2[nH]cnc12)c1cc2cccc(-c3cccnc3)c2c(=O)n1-c1ccccc1 (stereo in doubt) [Compound 7]
Reply text: < 10000 nM

Inquiry: Look up IC50: CC(Nc1ncnc2[nH]cnc12)c1cc2cccc(C#N)c2c(=O)n1-c1ccccc1 (stereo in doubt) [Compound 16]
Reply text: < 10000 nM

Entry source: patent US9738644B2
